System: Saccharomyces cerevisiae BY4741 SeMeCo community
Test: z-score of subpopulation abundance vs DMSO median, subpopulation auxotrophic for HLU; higher = larger share of this subpopulation than in DMSO controls
Details: 10 µM; 24 h; SM minimal medium; subpopulation (auxotrophy): HLU
measurement label: z-score of subpopulation abundance
Numbers only.

Example entries and their recorded answers appear below.
[
  {
    "molecule": "Cc1cc(O)ccc1Cl",
    "measurement label": "z-score of subpopulation abundance",
    "experimental value": -0.87
  },
  {
    "molecule": "Nc1ccncc1",
    "measurement label": "z-score of subpopulation abundance",
    "experimental value": 0.05
  }
]

Field z-score of subpopulation abundance (entry C[N+]12CCC(CC1)C(OC(=O)C(O)(c1ccccc1)c1ccccc1)C2 (stereo not drawn) [Clidinium Bromide] ) reads -0.31

----------
I'd appreciate it if you could supply z-score of subpopulation abundance values for the items below.
Tested on: Saccharomyces cerevisiae BY4741 SeMeCo community
Experiment: z-score of subpopulation abundance vs DMSO median, subpopulation auxotrophic for LU; higher = larger share of this subpopulation than in DMSO controls
Settings: 10 µM; 24 h; SM minimal medium; subpopulation (auxotrophy): LU
Numbers only.

Example entries and their recorded answers appear below.
[
  {
    "compound": "COc1ccc2[nH]cc(CCN)c2c1",
    "experimental target": "Saccharomyces cerevisiae BY4741 SeMeCo community",
    "experimental value": 1.01
  },
  {
    "compound": "Cn1cc(C2=C(c3cn(C4CCN(Cc5ccccn5)CC4)c4ccccc34)C(=O)NC2=O)c2ccccc21",
    "experimental target": "Saccharomyces cerevisiae BY4741 SeMeCo community",
    "experimental value": 0.66
  },
  {
    "compound": "O=[N+]([O-])C(Br)(CO)CO",
    "experimental target": "Saccharomyces cerevisiae BY4741 SeMeCo community",
    "experimental value": 0.26
  },
  {
    "compound": "O=C(O[C@H]1C[N+]2(CCCOc3ccccc3)CCC1CC2)C(O)(c1cccs1)c1cccs1 [Aclidinium Bromide]",
    "experimental target": "Saccharomyces cerevisiae BY4741 SeMeCo community",
    "experimental value": 0.07
  },
  {
    "compound": "C=CCN1C[C@H](C(=O)N(CCCN(C)C)C(=O)NCC)C[C@@H]2c3cccc4[nH]cc(c34)C[C@H]21",
    "experimental target": "Saccharomyces cerevisiae BY4741 SeMeCo community",
    "experimental value": 1.61
  },
  {
    "compound": "C[C@@H]1CC[C@H]2[C@@H](C)C(=O)O[C@@H]3O[C@@]4(C)CC[C@@H]1[C@]32OO4",
    "experimental target": "Saccharomyces cerevisiae BY4741 SeMeCo community",
    "experimental value": -0.94
  },
  {
    "compound": "CN1[C@@H]2C[C@@H](OC(=O)[C@H](CO)c3ccccc3)C[C@H]1[C@@H]1O[C@@H]12 [Scopolamine HBr]",
    "experimental target": "Saccharomyces cerevisiae BY4741 SeMeCo community",
    "experimental value": 0.22
  },
  {
    "compound": "CCCCCCCCCCCCCCCC[n+]1ccccc1 [Cetylpyridinium Chloride]",
    "experimental target": "Saccharomyces cerevisiae BY4741 SeMeCo community",
    "experimental value": 4.67
  }
]

For every item in the list below, what is its measured z-score of subpopulation abundance?
1. O=C(O[C@H]1C[C@H]2CC[C@@H](C1)[N+]21CCCC1)C(O)(c1ccccc1)c1ccccc1 [Trospium chloride]
2. C=C(C)[C@H]1Cc2c(ccc3c2O[C@@H]2COc4cc(OC)c(OC)cc4[C@@H]2C3=O)O1
3. CN1c2ccccc2C(NCCCCCCC(=O)O)c2ccc(Cl)cc2S1(=O)=O (centres undefined) [Tianeptine sodium]

Result:
-0.24
0.18
-0.24

For every item in the list below, what is its measured z-score of subpopulation abundance?
1. CC1(C)SC2C(N)C(=O)N2C1C(=O)O (centres undefined)
2. COc1cc2c(cc1OC)C1CC(=O)C(CC(C)C)CN1CC2 (centres undefined)
3. C=C[C@H]1CN2CC[C@H]1C[C@H]2[C@H](O)c1ccnc2ccccc12

Result:
[0.32, -0.11, 0.59]
